System: HOP-92 NSCLC
Assay: NCI tumour cell line growth inhibition, 48 h; in the data active means GI50 below about 0.43 µM; inactive means the rest
Select the correct class. Options are active, inactive and nothing else.

Compound	Assigned category
O=C(NCc1cn(Cc2cccc(Oc3ccccc3)c2)nn1)c1cccnc1Nc1ccc(F)cc1	inactive
O=C1C=C(Nc2ccccc2)c2ccccc2C1=O	inactive
Cn1cc(-c2ccc3nc(-c4ccc(CC(=O)Nc5cc(C(C)(C)C)no5)cc4)cnc3c2)cn1	active
CN1C(=O)C(c2c[nH]c3ccccc23)=C(c2c[nH]c3ccccc23)C1=O	inactive
O=C(/C=C\c1ccc(O)c(O)c1)c1ccccc1O	inactive

Exercise: Kindly provide the recorded test outcome for the following compound: CNC(=O)Oc1cc(C(C)C)ccc1Sc1ccc(C(C)C)cc1OC(=O)NC
Solution: inactive

Exercise: Ok, now CN(C)CCC(N)(P(=O)([O-])[O-])P(=O)([O-])[O-].N.N.[Pt+2]
Solution: inactive

Exercise: Ok, now COC(=O)N[C@H]1CCc2cc(OC)c(OC)c(OC)c2-c2ccc(SC)c(=O)cc21
Solution: active

Exercise: Ok, now COc1ccc(C2=NN(C(N)=S)C(c3ccc4c(c3)OCO4)C2)cc1 (centres undefined)
Solution: inactive

###

Tested on: OVCAR-5 ovarian
Assay: NCI tumour cell line growth inhibition, 48 h
Using TGI as the sorting value, the categories are bottom bin = under 20 µM, middle bin = from 20 µM up to 30 µM, top bin = 30 µM and over

Examples with answers:
Compound	Assigned category
COc1ccc2c(O)c(Oc3ccc(Cl)cc3)c(=O)oc2c1	top bin
CC(C)(CN1CCCCC1)C(=O)/C=C/c1ccccc1	top bin
C#CCOC(=O)C(N)CC(N)=O (stereo unspecified)	top bin

Exercise: Please let me know in which category the item CC(C)[Si](OC12CCC(CC1O)CC2CO)(C(C)C)C(C)C (stereo unspecified) belongs.
Solution: top bin

Exercise: Ok, now COC(=O)N[C@H]1CCc2cc(OC)c(OC)c(OC)c2-c2ccc(SC)c(=O)cc21
Solution: top bin

Exercise: Ok, now CC(=O)c1ccc(Br)cc1NC1=CC(=O)c2ncccc2C1=O
Solution: top bin

Exercise: Ok, now CCCCn1c(=O)[nH]c(N)c([C@@H]2c3c([nH]c(=O)n(CCCC)c3=O)Oc3ccc4ccccc4c32)c1=O
Solution: bottom bin

Exercise: Ok, now CNC(=O)Oc1cc(C(C)C)ccc1Sc1ccc(C(C)C)cc1OC(=O)NC
Solution: middle bin

###

Would you mind telling me the reported GI50 of each entry?
Test system: HS 578T breast
Experiment: NCI tumour cell line growth inhibition, 48 h

Compound	Experimental system	Value observed
Cn1ncnc1[C@@H]1c2n[nH]c(=O)c3cc(F)cc(c23)N[C@H]1c1ccc(F)cc1	HS 578T breast	> 100 µM
O=C(/C=C\c1ccc(O)c(O)c1)c1ccccc1O	HS 578T breast	17.2 µM

Hey, can you go through the list below and give me GI50 for every item?
1. O=C1C=C(Nc2ccccc2)c2ccccc2C1=O
2. CC(C)=CCc1cc2c(cc1O)C1=C(C(=O)C3=C(NCCS3(=O)=O)C1=O)C(C=C(C)C)O2 (stereo unspecified)
3. COc1ccc(C2=NN(C(N)=S)C(c3ccc4c(c3)OCO4)C2)cc1 (stereo unspecified)
4. Cc1c(Cl)cccc1C(=O)Nc1nc2c(s1)CN(C(=O)Nc1cccc(C(F)(F)F)c1)CC2
5. ClC1=C(Cl)C(Cl)(C2(Cl)C(Cl)=C(Cl)C(Cl)=C2Cl)C(Cl)=C1Cl
6. CCCCn1c(=O)[nH]c(N)c([C@@H]2c3c([nH]c(=O)n(CCCC)c3=O)Oc3ccc4ccccc4c32)c1=O
7. CC(C)=CC[C@@H]1CC2(CC=C(C)C)C(=O)C(OC3(C(=O)c4ccccc4)C(=O)C4(CC=C(C)C)C[C@@H](CC=C(C)C)C(C)(C)C(CC=C(C)C)(C4=O)C3=O)(C(=O)c3ccccc3)C(=O)C(CC=C(C)C)(C2=O)C1(C)C (stereo partly specified)
8. O=[N+]([O-])c1ccc(C2=NCCO2)cc1

Solution:
["2.57 µM", "4.85 µM", "2.82 µM", "0.163 µM", "2.22 µM", "4.55 µM", "1.6 µM", "> 100 µM"]

Hey, can you go through the list below and give me GI50 for every item?
1. CC(C)(C)CC(C)(C)c1ccc(OCCO)cc1
2. COc1cc2c(c3oc(-c4ccc(O)cc4)c(O)c(=O)c13)CCC(C)(C)O2
3. CCOC(=O)c1noc2c1CCc1c-2cn(Cc2ccc(OC)cc2)c1-c1cc(OC)c(OC)c(OC)c1
4. CN(C)CCNC(=O)c1cc2c3cc(Cl)ccc3[nH]c2c2ncccc12
5. O=C(N/N=C/c1ccc(Cl)cc1)c1ccc(NC(=O)c2ccccn2)cc1
6. O=C1NN2CC(c3ccccc3)=NN=C2c2ccccc21

Solution:
4.26 µg/mL
0.0903 µM
2.99 µM
1.87 µM
21.1 µM
68 µM
